Record form. Attribute: Minimum inhibitory concentration (MIC), Ab FADDI-AB034. Fill in for each entry.
system: Acinetobacter baumannii; conditions: Acinetobacter baumannii FADDI-AB034; broth microdilution in CAMHB; TFA salt
Positions of bridges follow the written chain, without caps; N, C: chain ends. Non-standard residues stand in square brackets, D forms with d. Residues, ends and D or L forms follow the SMILES beside them. *: point of attachment. Benzoyl(4-(4-Cl-Ph)) = O=C(c1ccc(-c2ccc(Cl)cc2)cc1)*; Benzoyl(4-Ph) = O=C(c1ccc(-c2ccccc2)cc1)*; Hydrocinnamoyl = O=C(CCc1ccccc1)*; X41 = O=S(=O)(c1ccc(Cl)cc1Cl)*; Dab = NCC[C@H](N)C(=O)O; Abu = CC[C@H](N)C(=O)O; Dap = NC[C@H](N)C(=O)O
Provide the reading as a plain figure in µg/mL.

Entry under review: CC(C)C[C@H]1NC(=O)[C@H](CCN)NC(=O)[C@@H](NC(=O)[C@H](CN)NC(=O)[C@@H](NC(=O)[C@H](CCN)NC(=O)c2ccc(-c3ccc(Cl)cc3)cc2)[C@@H](C)O)CCNC(=O)[C@H]([C@@H](C)O)NC(=O)[C@H](CCN)NC(=O)[C@H](CCN)NC(=O)[C@H](C)NC1=O [Compound 144] ({Benzoyl(4-(4-Cl-Ph))}-[Dab]T[Dap][Dab][Dab][dL]A[Dab][Dab]T; lactam 4-C) . Reported Minimum inhibitory concentration (MIC), Ab FADDI-AB034?
0.5

Given the entry CC[C@@H]1NC(=O)[C@@H](CC(C)C)NC(=O)[C@H](CCN)NC(=O)[C@@H](NC(=O)[C@H](CN)NC(=O)[C@@H](NC(=O)[C@H](CCN)NC(=O)c2ccc(-c3ccccc3)cc2)[C@@H](C)O)CCNC(=O)[C@H]([C@@H](C)O)NC(=O)[C@H](CCN)NC(=O)[C@H](CCN)NC1=O [Compound 142] ({Benzoyl(4-Ph)}-[Dab]T[Dap][Dab][Dab][dL][Abu][Dab][Dab]T; lactam 4-C) , report its measured Minimum inhibitory concentration (MIC), Ab FADDI-AB034.
0.25

Form field: reported Minimum inhibitory concentration (MIC), Ab FADDI-AB034 of CC[C@@H]1NC(=O)[C@@H](CC(C)C)NC(=O)[C@H](CCN)NC(=O)[C@@H](NC(=O)[C@H](CN)NC(=O)[C@@H](NC(=O)[C@H](CCN)NC(=O)CCc2ccccc2)[C@@H](C)O)CCNC(=O)[C@H]([C@@H](C)O)NC(=O)[C@H](CCN)NC(=O)[C@H](CCN)NC1=O [Compound 145] (Hydrocinnamoyl-[Dab]T[Dap][Dab][Dab][dL][Abu][Dab][Dab]T; lactam 4-C)
0.5

Give the measured Minimum inhibitory concentration (MIC), Ab FADDI-AB034 of CC[C@@H]1NC(=O)[C@@H](CC(C)C)NC(=O)[C@H](CCN)NC(=O)[C@@H](NC(=O)[C@H](CN)NC(=O)[C@@H](NC(=O)[C@H](CCN)NS(=O)(=O)c2ccc(Cl)cc2Cl)[C@@H](C)O)CCNC(=O)[C@H]([C@@H](C)O)NC(=O)[C@H](CCN)NC(=O)[C@H](CCN)NC1=O [Compound 148] (X41-[Dab]T[Dap][Dab][Dab][dL][Abu][Dab][Dab]T; lactam 4-C) .
1

----------
Target or system Acinetobacter baumannii: recorded Minimum inhibitory concentration, Ab A ATCC 17978 listed per item.
Positions of bridges follow the written chain, without caps; N, C: chain ends. Non-standard residues stand in square brackets, D forms with d. Residues, ends and D or L forms follow the SMILES beside them. *: point of attachment. Benzoyl(3-CF3) = O=C(c1cccc(C(F)(F)F)c1)*; Benzoyl(4-Ph) = O=C(c1ccc(-c2ccccc2)cc1)*; X12 = O=C(c1ccc(C(F)(F)F)c(F)c1)*; dNle = CCCC[C@@H](N)C(=O)O; Nonanoyl = CCCCCCCCC(=O)*; Dab = NCC[C@H](N)C(=O)O; Abu = CC[C@H](N)C(=O)O; Dap = NC[C@H](N)C(=O)O
Numbers only here, please. The scale is µg/mL.

Which measured Minimum inhibitory concentration, Ab A ATCC 17978 value corresponds to CC[C@@H]1NC(=O)[C@@H](CC(C)C)NC(=O)[C@H](CCN)NC(=O)[C@@H](NC(=O)[C@H](CN)NC(=O)[C@@H](NC(=O)[C@H](CCN)NC(=O)c2ccc(C(F)(F)F)c(F)c2)[C@@H](C)O)CCNC(=O)[C@H]([C@@H](C)O)NC(=O)[C@H](CCN)NC(=O)[C@H](CCN)NC1=O [Compound 111] (X12-[Dab]T[Dap][Dab][Dab][dL][Abu][Dab][Dab]T; lactam 4-C) ?
0.5

Quick check: Minimum inhibitory concentration, Ab A ATCC 17978 of CC(C)C[C@H]1NC(=O)[C@H](CCN)NC(=O)[C@@H](NC(=O)[C@@H](CO)NC(=O)[C@@H](NC(=O)[C@H](CCN)NC(=O)c2ccc(-c3ccccc3)cc2)[C@@H](C)O)CCNC(=O)[C@H]([C@@H](C)O)NC(=O)[C@H](CCN)NC(=O)[C@H](CCN)NC(=O)[C@H]([C@@H](C)O)NC1=O [Compound 11] ({Benzoyl(4-Ph)}-[Dab]T[dS][Dab][Dab][dL]T[Dab][Dab]T; lactam 4-C) ?
0.5

Look up Minimum inhibitory concentration, Ab A ATCC 17978 for this compound: CCCC[C@H]1NC(=O)[C@H](CCN)NC(=O)[C@@H](NC(=O)[C@H](CN)NC(=O)[C@@H](NC(=O)[C@H](CCN)NC(=O)c2cccc(C(F)(F)F)c2)[C@@H](C)O)CCNC(=O)[C@H]([C@@H](C)O)NC(=O)[C@H](CCN)NC(=O)[C@H](CCN)NC(=O)[C@H](CC)NC1=O [Compound 121] ({Benzoyl(3-CF3)}-[Dab]T[Dap][Dab][Dab][dNle][Abu][Dab][Dab]T; lactam 4-C)
0.5

Given the entry CCCCCCCCC(=O)N[C@@H](CCN)C(=O)N[C@H](C(=O)N[C@@H](CN)C(=O)N[C@H]1CCNC(=O)[C@H]([C@@H](C)O)NC(=O)[C@H](CCN)NC(=O)[C@H](CCN)NC(=O)[C@H](C)NC(=O)[C@@H](CC(C)C)NC(=O)[C@H](CCN)NC1=O)[C@@H](C)O [Compound 132] (Nonanoyl-[Dab]T[Dap][Dab][Dab][dL]A[Dab][Dab]T; lactam 4-C) , report its measured Minimum inhibitory concentration, Ab A ATCC 17978.
0.5

Which Minimum inhibitory concentration, Ab A ATCC 17978 value belongs to CCCC[C@H]1NC(=O)[C@H](CCN)NC(=O)[C@@H](NC(=O)[C@H](CN)NC(=O)[C@@H](NC(=O)[C@H](CCN)NC(=O)c2cccc(C(F)(F)F)c2)[C@@H](C)O)CCNC(=O)[C@H]([C@@H](C)O)NC(=O)[C@H](CCN)NC(=O)[C@H](CCN)NC(=O)[C@H](C)NC1=O [Compound 125] ({Benzoyl(3-CF3)}-[Dab]T[Dap][Dab][Dab][dNle]A[Dab][Dab]T; lactam 4-C) ?
1

----------
Hi there, I'd appreciate the recorded Minimum inhibitory concentration, Ec FADDI-EC003 for every entry that follows.
Positions of bridges follow the written chain, without caps; N, C: chain ends. Non-standard residues stand in square brackets, D forms with d. Residues, ends and D or L forms follow the SMILES beside them. *: point of attachment. Benzoyl(3-CF3) = O=C(c1cccc(C(F)(F)F)c1)*; Decanoyl = CCCCCCCCCC(=O)*; Octanoyl = CCCCCCCC(=O)*; X5 = Cc1cc(C(=O)*)ccc1Cl; Dab = NCC[C@H](N)C(=O)O; X39 = O=C(Cc1ccccc1Cl)*; Abu = CC[C@H](N)C(=O)O; Dap = NC[C@H](N)C(=O)O
# value in µg/mL; strip the unit string

Item: CCCCCCCC(=O)N[C@@H](CCN)C(=O)N[C@H](C(=O)N[C@@H](CCN)C(=O)N[C@H]1CCNC(=O)[C@H]([C@@H](C)O)NC(=O)[C@H](CCN)NC(=O)[C@H](CCN)NC(=O)[C@H]([C@@H](C)O)NC(=O)[C@@H](CC(C)C)NC(=O)[C@H](CCN)NC1=O)[C@@H](C)O [Compound 20] (Octanoyl-[Dab]T[Dab][Dab][Dab][dL]T[Dab][Dab]T; lactam 4-C) Test system: Enterobacter cloacae Read-out: Minimum inhibitory concentration, Ec FADDI-EC003 Value: ?
0.5

Request: Minimum inhibitory concentration, Ec FADDI-EC003, test system Enterobacter cloacae, entry CC[C@@H]1NC(=O)[C@@H](CC(C)C)NC(=O)[C@H](CCN)NC(=O)[C@@H](NC(=O)[C@H](CN)NC(=O)[C@@H](NC(=O)[C@H](CCN)NC(=O)c2ccc(Cl)c(C)c2)[C@@H](C)O)CCNC(=O)[C@H]([C@@H](C)O)NC(=O)[C@H](CCN)NC(=O)[C@H](CCN)NC1=O [Compound 104] (X5-[Dab]T[Dap][Dab][Dab][dL][Abu][Dab][Dab]T; lactam 4-C)
0.25

Enter reported Minimum inhibitory concentration, Ec FADDI-EC003 observed with Enterobacter cloacae for CC(C)C[C@H]1NC(=O)[C@H](CCN)NC(=O)[C@@H](NC(=O)[C@@H](CO)NC(=O)[C@@H](NC(=O)[C@H](CCN)NC(=O)c2cccc(C(F)(F)F)c2)[C@@H](C)O)CCNC(=O)[C@H]([C@@H](C)O)NC(=O)[C@H](CCN)NC(=O)[C@H](CCN)NC(=O)[C@H]([C@@H](C)O)NC1=O [Compound 19] ({Benzoyl(3-CF3)}-[Dab]T[dS][Dab][Dab][dL]T[Dab][Dab]T; lactam 4-C)
0.5

Return Minimum inhibitory concentration, Ec FADDI-EC003 measured with Enterobacter cloacae given this molecule: CCCCCCCCCC(=O)N[C@@H](CCN)C(=O)N[C@H](C(=O)N[C@H](CO)C(=O)N[C@H]1CCNC(=O)[C@H]([C@@H](C)O)NC(=O)[C@H](CCN)NC(=O)[C@H](CCN)NC(=O)[C@H]([C@@H](C)O)NC(=O)[C@@H](CC(C)C)NC(=O)[C@H](CCN)NC1=O)[C@@H](C)O [Compound 9] (Decanoyl-[Dab]T[dS][Dab][Dab][dL]T[Dab][Dab]T; lactam 4-C)
1

Minimum inhibitory concentration, Ec FADDI-EC003 of CC[C@@H]1NC(=O)[C@@H](CC(C)C)NC(=O)[C@H](CCN)NC(=O)[C@@H](NC(=O)[C@H](CN)NC(=O)[C@@H](NC(=O)[C@H](CCN)NC(=O)Cc2ccccc2Cl)[C@@H](C)O)CCNC(=O)[C@H]([C@@H](C)O)NC(=O)[C@H](CCN)NC(=O)[C@H](CCN)NC1=O [Compound 84] (X39-[Dab]T[Dap][Dab][Dab][dL][Abu][Dab][Dab]T; lactam 4-C) on Enterobacter cloacae?
0.25
